- System: SC27B
- procedure.text: qHTS profiling for inhibitors of Plasmodium falciparum proliferation (AID 504749); note: nearly all actives have a fitted effect of over 60% in size
- condition: P. falciparum in erythrocytes, SYBR Green DNA, 72 h; series mostly up to 28.7 µM
Inconclusive results are not listed. Calls of active or inactive are those of the source. Calls come from the whole dose curve; as a rule, active = well fitted inhibition curve with a large enough effect; inconclusive = small, poorly fitted or top-dose-only effect; inactive = flat fitted curve, though single readings scatter.
// allowed return values: active, inactive

Answered examples (5):
CCC(=O)O[C@H]1CC[C@H]2[C@@H]3CCC4=CC(=O)CC[C@]4(C)[C@H]3CC[C@]12C	inactive
COc1ccc(CN2CCNCC2)c(OC)c1OC	inactive
N#Cc1nn(-c2c(Cl)cc(C(F)(F)F)cc2Cl)c(N)c1S(=O)C(F)(F)F (stereo unspecified)	active
C[C@]12CC[C@H]3[C@@H](CC=C4C[C@@H](O)CC[C@@]43C)[C@@H]1CC[C@@H]2O	inactive
CC(C)(O)C(Cl)(Cl)Cl	active

Prompt: Look up the recorded call for O=C(CCCN1CCC(n2c(=O)[nH]c3ccccc32)CC1)c1ccc(F)cc1 in this test.
Completion: active
